# assay method text: yeast display, Sf9 membrane polyspecificity reagent, FACS + sequencing; frameworks hold sequencing errors
measured quantity: polyreactivity (PSR sort gate)

As a guide, the following entries are already answered.
{"monomer sequence": "QVQLVESGGGLVQAGGSLRISCAASGFIFRPNAMGWYRQAPGKERELVAAITRDGDRTYYADSVKGRFTISRDNAKNTVYLQMNSLKPEDTAVYYCAADVIQWWTRYYTWEYDYWGQGTQVTVSS", "polyreactivity (PSR sort gate)": "low polyreactivity"}
{"monomer sequence": "QVQLQESGGGLVQAGGSLRLSCAAIGYISYFVGMGWYRQQPGKEREFVASIADVSNTYYADSVKGRFTISRDNAKNTVYLQRNSLKPEDTAVYYCAVVDSWTYRFDYWGQGTQVTVSS", "polyreactivity (PSR sort gate)": "high polyreactivity"}
{"monomer sequence": "QVQLVESGGGLFQAGGSLRLSCAASGFIVRRYAMGWYRQAPGKEREMVAAITSGGGRTYYADSVKGRYTISRDNAKYTVNLEMISLKPEDTGVYDCARVQRCDYDYWGQGTQVTVSS", "polyreactivity (PSR sort gate)": "high polyreactivity"}
{"monomer sequence": "QVQLVESGGGLVQAGGSLRLSSAASGSTFNLYAMGWYRQAPGKERELVAAISRRGGSTYYADSVKGRFTISRDNAKNTVYLQMNSLKPEDTAVYYCAAVVVTGQGDKYDYWGQGTQVTVSS", "polyreactivity (PSR sort gate)": "high polyreactivity"}
{"monomer sequence": "QVQLVESGGGLVQAGGSLRLSCAASGRTFRVYAMGWYRQAPGKERELVAAISGRGGSTYYADSVKGRFSISRDNAKNTVYFQMNSLKPEVTAVYYCAKSNPYLRLCEGNYWGQGTQVTVSS", "polyreactivity (PSR sort gate)": "high polyreactivity"}

Field: next sequence
Can you look up the measured polyreactivity (PSR sort gate) of `QVQLVESGGGVVQAGGILSLSCAASGFTFATYAMGWYRQAPGKERELVAGITRSGGSTYYADSVKGRFTNSRYNAKNTVYLQMNSLKPEDTAVYYCNKAYGGDKYSGTYDYWGQGTQVTVSS` for me?
high polyreactivity

----------
# assay method text: yeast display, Sf9 membrane polyspecificity reagent, FACS + sequencing; frameworks hold sequencing errors
measured quantity: polyreactivity (PSR sort gate)

Example results:
{"monomer sequence": "QVQLVESGGGLVQAGGSLRLSCAASGRIIYTYALGWYRQAPGKERELVAAISWSGGSTYYADSVKGRFTISRDNAKNTVYLQMNSLKREDTAVYYCNAAYYGYENLSKRGYWGQGTQVTVSS", "value": "high polyreactivity"}
{"monomer sequence": "QVQLVESGGGLVQAGGSLRLSCAASGIIFWYNAMGWYRQAPGKERELVAAISWSGGRTYYADSVKGRFTISRDNAKNTVYLQMNSLKPEDTAVYYCAAKVPRSSRSYGYWGQGTQVTVSS", "value": "high polyreactivity"}
{"monomer sequence": "QVQLVESGGGLVQAGGSLRLSCAASGLIFYGNAMGWYRQAPGKERELVAAISRRGGRTYYADSVKGRFTISRDKAKNTVYLQMKSLKPEDTAVYYCAADVIYSGDYWGQGTQVTVSS", "value": "high polyreactivity"}
{"monomer sequence": "QVQLVESGGGLVQAGGSLRLSCAASGGIFYGYAMGWYRQAPGKERELVAAISDSGGSTYYADSVKGRFTISRDNAKNTVYLQMNSLKPEDTAVYYCATDAPVGGYVSEGDYWGQGTQVTVSS", "value": "low polyreactivity"}
{"monomer sequence": "QGQLVESGGGLVQAGGSLRLSCAASGSIFLGYAMGWYRQAPRKERELVAVITKSRGRTYYADSVKGRFTISRDNAKNTVYFQMNSLKPEDTAVYYCAKQPGSAYDYWGQGTQVTVSS", "value": "high polyreactivity"}
{"monomer sequence": "QVQLVESGGGLVQAGGTLRLSSAASGSIFYRNAMGWYRQAPGKERELVDSITSGGLTNYADSVKGRFTISRDNAKNTVYLHMFSLKPEETAVYYCARGRASYTKSGPTPYTGYGYWGQGTQVTVSS", "value": "low polyreactivity"}
{"monomer sequence": "QVQLVESGGGLVQAGGSLRLSCAASGSIFDYYAMGWYRQAPGKERELVAAIDNPDSTNYADSVKGRFTISRDNAKNTVYFQMNSLKPEDTAVYYCNADYWRYISSYDYWGQGTQVTVSS", "value": "low polyreactivity"}
{"monomer sequence": "QVQLVESGGGLVQAGGSLRLSCAASGSTFSIYAMGWYRQAPGKERELVAAISGSGSRTYYADSVKGRFTISRDNAKNTVYLQMNSLKPEDTAVYYCAARGRHRDGFDFNYWGQGTQVTVSS", "value": "high polyreactivity"}

Name the recorded polyreactivity (PSR sort gate) for `QVQLVESGGGLVQAGGSLRLSCAASGLTFYSYAMGWYRQAPGKERELVAAISKRGTNTFYADSAKGRFTISRDNAKNTVYLQMNSLKPEDTAVYYCAVDLSDSDYYWGQGTQVTVSS` .
low polyreactivity

Do the same for `QVQLVESGGGLVQAGGSLRLSCAASGSIFAVYAMGWYRQAPGKERELVAVITRSGGSTYYADSVKGRFTISRDNAKNTVYLQMNTLKPEDTADYYCAARTGYGYTRYEYWGQGTQVTVSS` please
high polyreactivity

Please answer likewise for `QVQLVESGGGLVQAGGSLRLSCAASGSILRYYAMGWYRQAPGKERELVADISTSGGSTYYADSVKGRFTISRDNAKNTFDLQMISLKPEDTAVYYCASAYYRYLIYIGKFDYWGQGTQVTVSS`
high polyreactivity

----------
# assay method text: yeast display, Sf9 membrane polyspecificity reagent, FACS + sequencing; frameworks hold sequencing errors
measured quantity: polyreactivity (PSR sort gate)

{"monomer sequence": "QVQLVESGGGLVQAGGSLRLSCAASGSTFKYYAMGWYRPAPGKERELVAAISGRGGRTYYADSVKGRFTISRDNAKNTVYLQMNSLKPEDTAVYYCNAPFLGAHHYGYEYWGQRTQVTVSS", "measured quantity": "polyreactivity (PSR sort gate)", "value": "high polyreactivity"}
{"monomer sequence": "QVQLVESGGRLVQAGGSLRLSCAASGRIFTQYAMGWYRQSPGKERELVAAINASDGSTYADSVKGRFTSSRDNAQNTVYLQMKRLKPADTAVYYCNVTGGTYDFTRWSEFDHWGQGTQVTVSS", "measured quantity": "polyreactivity (PSR sort gate)", "value": "low polyreactivity"}
{"monomer sequence": "QVQLVESGGGLVQAGGSLRLSCAASGFIFRYYAMGWYRQAPGKERELVARINKSGGYTYYADSVKGRFTISRDNAKNTVYLQMNSLKPEDTAVYYCNRVRVFSVPFDYWGQGTQVTVSS", "measured quantity": "polyreactivity (PSR sort gate)", "value": "high polyreactivity"}
{"monomer sequence": "QVQLVESGGALVQAGGSIRISCAASGSIFRDYAMGWSRQAPGKERELVAVISIAGRTNYADSVKGRFTISRDNAKNTVYLQMKRLKPEDTAVYYCAADSAWYGYDYWGQGTQVTVSS", "measured quantity": "polyreactivity (PSR sort gate)", "value": "low polyreactivity"}

Using the record for `QVQLEESGGGLVQAGGSLRLSCAASGGIFPAYAMGWYRQAPGKERELVASISANGGRTYYADSVKGRFTISRDNAKNTVYLQMNSLKPEDTAVYYCNASSLSGSWRFYYWGQGTQVTVSS` , report its polyreactivity (PSR sort gate).
high polyreactivity

----------
# assay method text: yeast display, Sf9 membrane polyspecificity reagent, FACS + sequencing; frameworks hold sequencing errors
measured quantity: polyreactivity (PSR sort gate)

In the examples that follow, each entry is paired with its recorded polyreactivity (PSR sort gate).
{"monomer sequence": "QVQLVESGGGLVQAGGSLRLSCAASGIIFVYYAMGWYRQAPGKERELVAAISYSGGRTYYADSVKGRFTISRDNAKNTVYLQMNSLKPEDTAVYYCAAVDRRGYRYALDYWGQGTQVTVSS", "polyreactivity (PSR sort gate)": "high polyreactivity"}
{"monomer sequence": "QVQLVDSGGGLVQAGGSLRLSCAASGRIFPYYAMGWYRQAPGKERELVAAISSGGSTKYADSVKGRFTISRDNAKNTVYLQMNSLKPEDTAVYYCAKDPFPWALFDYWGQGTLVTVSS", "polyreactivity (PSR sort gate)": "low polyreactivity"}
{"monomer sequence": "QVQLVESGGGLVQAGGSLRLSCAASGSTFFHNAMGWYRQAPGKERELVAAINWNGGSTYYADSVKGRFTISRDNAKNTVYLQMNSLKPEDTAVYYCAADIYTYLGAYYIGYYWGQGTQVTVSS", "polyreactivity (PSR sort gate)": "low polyreactivity"}
{"monomer sequence": "QVQHVESVGGLVQAGGSLRLSCAASVSTFYFYAMGWYRQAPGKERELVAVISSGGRTYYADSVKGRFTISRDKAKNTVYLQMNSLKPEDTAVYYCAASWPSSLTYYYWGQGTQVTVSS", "polyreactivity (PSR sort gate)": "low polyreactivity"}
{"monomer sequence": "QVKLVESGGGLVQAGGSLRLSCAASGSIFYYYAMGWYREAPGKERELVAAISYGGGSTYYADSVKGRFTISRDNAKNTVYLQMNSLKPEDTAVYYCAVQEVVGWYLYDYWGHGTQVTVSS", "polyreactivity (PSR sort gate)": "high polyreactivity"}
{"monomer sequence": "QVQIVESGGGLVQAGGSLRLSCAASGRIFGYNAMGWYRQAPGKERELVAAISNTGGSTYYADSVKGRFTISRDNAKNTVYLQMNSLKPEDTAVYYCNASGRRVQIWEGDYWGHGTQVTVSS", "polyreactivity (PSR sort gate)": "high polyreactivity"}

Find the recorded polyreactivity (PSR sort gate) belonging to `QVQLQESGGALVQAGGSLRLSCAASGYISAGRQMGWYRQAPGKELEFVATINGGATTNYADSVKGRFTISRDNAKNSVYLQMNSLKPEDTAVYYCAAVIWYVQDYTYWGQGAQVTVSS` and report it.
high polyreactivity
